# experimental_system: MATE1 (Homo sapiens)
# measurement_protocol: Uptake ratio in MATE1-overexpressing HEK293 cells vs empty vector (2.5 μM, 1 min, HPLC-MS/MS)
# Type: cell-based
# experimental_conditions: fold uptake over empty vector, 2.5 μM, 1 min
MATE1 ratio listing for selected compounds.

Some solved entries appear below for comparison.
INSERT INTO results (compound, recorded_measurement) VALUES
  ('NNCCc1ccccc1 [Phenelzine]', 1.58),
  ('CN[C@H]1CC[C@@H](c2ccc(Cl)c(Cl)c2)c2ccccc21 [Sertraline]', 1.28),
  ('CNCC[C@@H](Oc1ccccc1C)c1ccccc1 [Atomoxetine (S), Atomoxetine]', 1.16),
  ('CNC[C@H](O)c1cccc(O)c1 [Phenylephrine (S), Phenylephrine]', 12.74),
  ('CC(C)NCC(O)c1ccc(O)c(O)c1 (stereo not shown) [Isoprenaline]', 16.78);

Fill in: MATE1 ratio of Br.Cc1ncc(C[n+]2cccc(CCO)c2C)c(N)n1.[Br-] [Pyrithiamine] is ___ 20.40

Requested read-out: MATE1 ratio. Entry: CCC1(C2=NCCN2)Cc2ccccc2O1 (stereo not shown) [Efaroxan] 1.38

Record request: MATE1 ratio value, item CC(C)(C)NCC(O)c1ccc(O)c(CO)c1 (stereo not shown) [Salbutamol] 7.94

Which MATE1 ratio is reported for this compound? C[N+]12CCC(CC1)C(OC(=O)C(O)(c1ccccc1)c1ccccc1)C2 (stereo not shown) [Clidinium] 16.18

Reported MATE1 ratio for NC(=O)c1cnccn1 [Pyrazinamide] : what is it? 0.97

----------
Items are presented alongside their recorded MATE1 (uptake ratio).
# experimental_system: MATE1 (Homo sapiens, UniProt Q96FL8)
# measurement_protocol: Uptake ratio in MATE1-overexpressing HEK293 cells vs empty vector (2.5 μM, 1 min, HPLC-MS/MS)
# Type: cell-based
# experimental_conditions: mean ratio of uptake in MATE1-overexpressing HEK293 cells vs empty vector; 2.5 μM, 1 min
Write the number on its own, no unit after it.

INSERT INTO measurements (compound, recorded_measurement) VALUES
  ('O=C(O[C@H]1C[N+]2(CCCOc3ccccc3)CCC1CC2)C(O)(c1cccs1)c1cccs1 [Aclidinium]', 4.73),
  ('[H]/N=C(\N/C(=N/[H])NCCCCCCNC(=N)NC(=N)Nc1ccc(Cl)cc1)Nc1ccc(Cl)cc1', 1.08),
  ('CN/C(=N\CCSCc1nc[nH]c1C)NC#N', 11.52),
  ('CN(C)CCCN1c2ccccc2Sc2ccc(Cl)cc21', 1.42),
  ('CCCC(=O)Nc1ccc(OCC(O)CNC(C)C)c(C(C)=O)c1 (stereo not drawn)', 12.97),
  ('O=C(O[C@H]1C[N+]2(CCCOc3ccccc3)CCC1CC2)C(O)(c1cccs1)c1cccs1 [Aclidinium (S), Aclidinium]', 5.36),
  ('N=C(N)NCCCCNC(=N)N', 40.2),
  ('CCCCNc1cc(C(=O)O)cc(S(N)(=O)=O)c1Oc1ccccc1 [Bumetanide]', 2.02);

What value of MATE1 (uptake ratio) on MATE1 (Homo sapiens, UniProt Q96FL8) does CN(C)C(=O)Oc1cc(OC(=O)N(C)C)cc(C(O)CNC(C)(C)C)c1 (stereo not drawn) have? 1.52

----------
# experimental_system: MATE2K (Homo sapiens)
# Sequence (Q86VL8 1-566 isoform Q86VL8-3): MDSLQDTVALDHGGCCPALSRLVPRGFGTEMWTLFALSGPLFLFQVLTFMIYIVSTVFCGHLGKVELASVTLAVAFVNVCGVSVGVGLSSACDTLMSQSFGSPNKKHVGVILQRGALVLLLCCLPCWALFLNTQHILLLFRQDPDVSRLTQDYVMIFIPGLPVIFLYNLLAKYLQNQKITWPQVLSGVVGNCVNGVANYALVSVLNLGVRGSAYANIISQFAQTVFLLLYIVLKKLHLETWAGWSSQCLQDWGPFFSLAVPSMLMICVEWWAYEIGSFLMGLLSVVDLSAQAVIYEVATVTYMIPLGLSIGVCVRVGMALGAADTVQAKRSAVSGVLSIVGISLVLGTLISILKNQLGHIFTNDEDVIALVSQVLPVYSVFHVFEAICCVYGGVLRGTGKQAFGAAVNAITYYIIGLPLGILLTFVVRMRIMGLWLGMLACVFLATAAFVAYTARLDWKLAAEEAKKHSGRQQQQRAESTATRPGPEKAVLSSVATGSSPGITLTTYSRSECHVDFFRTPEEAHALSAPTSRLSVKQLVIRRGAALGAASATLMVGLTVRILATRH
# measurement_protocol: Uptake ratio in MATE2K-overexpressing HEK293 cells vs empty vector (2.5 μM, 1 min, HPLC-MS/MS)
# Type: cell-based
readout_type: MATE2 (uptake ratio)
Please reply with the number alone, leaving off any unit.

Observe how each entry below is paired with its result.
INSERT INTO results (compound, readout_type, recorded_measurement) VALUES
  ('CC(N)[C@H](O)c1ccc(O)c(O)c1 (stereo partly drawn) [Alpha-methylnorepinephrine (-), Alpha-methylnorepinephrine]', 'MATE2 (uptake ratio)', 0.72),
  ('CCN1C[C@]2(COC)[C@H](O)C[C@H](OC)[C@@]34[C@@H]5C[C@@]6(O)[C@H](OC(=O)c7ccccc7)[C@@H]5[C@@](OC(C)=O)([C@@H]([C@H](OC)[C@H]23)[C@@H]14)[C@@H](O)[C@@H]6OC', 'MATE2 (uptake ratio)', 1.32);

Give its MATE2 (uptake ratio) value. Item: "C=C[C@H]1CN2CC[C@H]1C[C@H]2[C@H](O)c1ccnc2ccccc12" 1.14

# get_value(readout='MATE2 (uptake ratio)', item= CNC(C)Cc1ccc2c(c1)OCO2 (stereo not shown) ) 1.18

// lookup MATE2 (uptake ratio) for "O=C1CC2(CCCC2)CC(=O)N1CCCCN1CCN(c2ncccn2)CC1" 1.36

// MATE2 (uptake ratio) lookup, key: "N=C(Nc1ccccc1)Nc1ccccc1" 1.27

Give its MATE2 (uptake ratio) value. Item: Oc1ccc2c3c1O[C@H]1[C@H](O)CC[C@@]4(O)[C@@H](C2)N(CC2CC2)CC[C@]314 [6-beta-Naltrexol] 1.2

----------
# experimental_system: MATE1 (Homo sapiens)
# measurement_protocol: Uptake ratio in MATE1-overexpressing HEK293 cells vs empty vector (2.5 μM, 1 min, HPLC-MS/MS)
# Type: cell-based
Documented MATE1 ratio across a set of compounds

Consider the following illustrative entries.
INSERT INTO results (compound, readout_type, recorded_measurement) VALUES
  ('COc1cc2c(cc1OC)-c1cc3ccc4c(c3c[n+]1CC2)OCO4 [Epiberberine]', 'MATE1 ratio', 12.54),
  ('CNCCc1ccc(O)cc1', 'MATE1 ratio', 3.11),
  ('CCN(CC)CCc1c[nH]c2ccccc12', 'MATE1 ratio', 1.10),
  ('CCCCNC(=N)NC(=N)N', 'MATE1 ratio', 24.80),
  ('CN(C)CCc1c[nH]c2ccccc12', 'MATE1 ratio', 0.99),
  ('CC(=O)OC1CN2CCC1CC2 (centres unmarked)', 'MATE1 ratio', 1.26),
  ('NC(N)=NCCCC[C@H](N)C(=O)O', 'MATE1 ratio', 0.97),
  ('CC(Cc1ccc(O)cc1)NCC(O)c1cc(O)cc(O)c1 (centres unmarked)', 'MATE1 ratio', 14.98),
  ('CCNC(C)Cc1ccc2c(c1)OCO2 (centres unmarked)', 'MATE1 ratio', 1.07),
  ('CCCCCCCN', 'MATE1 ratio', 1.18);

What measured MATE1 ratio goes with "O=C1CCC[C@@H]2[C@H]3CCCN4CCC[C@@H](CN12)[C@@H]34" ? 1.03

----------
# experimental_system: MATE1 (Homo sapiens)
# Sequence (Q96FL8 1-570): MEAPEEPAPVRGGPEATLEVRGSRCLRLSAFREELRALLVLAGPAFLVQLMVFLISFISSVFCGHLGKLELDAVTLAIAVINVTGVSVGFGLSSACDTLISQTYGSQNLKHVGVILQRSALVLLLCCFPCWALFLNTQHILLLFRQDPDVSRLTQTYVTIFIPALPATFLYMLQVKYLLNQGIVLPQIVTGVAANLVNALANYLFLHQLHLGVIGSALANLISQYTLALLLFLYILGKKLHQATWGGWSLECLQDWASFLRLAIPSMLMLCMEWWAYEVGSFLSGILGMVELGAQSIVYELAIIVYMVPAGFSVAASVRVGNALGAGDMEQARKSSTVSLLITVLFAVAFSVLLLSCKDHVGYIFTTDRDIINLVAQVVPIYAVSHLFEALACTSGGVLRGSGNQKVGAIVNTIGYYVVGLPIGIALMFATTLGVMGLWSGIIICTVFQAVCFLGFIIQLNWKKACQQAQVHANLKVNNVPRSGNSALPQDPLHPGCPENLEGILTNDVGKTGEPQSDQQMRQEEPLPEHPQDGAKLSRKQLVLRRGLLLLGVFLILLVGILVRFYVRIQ
# measurement_protocol: Uptake ratio in MATE1-overexpressing HEK293 cells vs empty vector (2.5 μM, 1 min, HPLC-MS/MS)
# Format: cell-based
# experimental_conditions: Table S1; 2.5 μM, 1 min
Please map values of MATE1 ratio in this study to classes as shown: zone 1 (below 3), zone 2 (3 to below 10), zone 3 (10 or more)

INSERT INTO results (molecule, qualitative_label) VALUES
  ('CC(C)(C)NCC(O)COc1cccc2c1CC(O)C(O)C2 (stereo not drawn)', 'zone 2'),
  ('CC(C)NC(=N)NC(=N)Nc1ccc(Cl)cc1', 'zone 2'),
  ('CC(C)(C)NCC(O)c1ccc(O)c(CO)c1 [Salbutamol (R), Salbutamol]', 'zone 2');

Where would "C[C@H]1N=C(N(C)C)N=C(N)N1" land among the classes by reported MATE1 ratio in this study? zone 3

Into which bin does this molecule go? "c1cnc2cc3c(cc2n1)[C@@H]1CNC[C@H]3C1" zone 1

GET /class?item= CC12CC3CC(C)(C1)CC(N)(C3)C2 [Memantine] zone 1

----------
# experimental_system: MATE1 (Homo sapiens, UniProt Q96FL8)
# Sequence (Q96FL8 1-570): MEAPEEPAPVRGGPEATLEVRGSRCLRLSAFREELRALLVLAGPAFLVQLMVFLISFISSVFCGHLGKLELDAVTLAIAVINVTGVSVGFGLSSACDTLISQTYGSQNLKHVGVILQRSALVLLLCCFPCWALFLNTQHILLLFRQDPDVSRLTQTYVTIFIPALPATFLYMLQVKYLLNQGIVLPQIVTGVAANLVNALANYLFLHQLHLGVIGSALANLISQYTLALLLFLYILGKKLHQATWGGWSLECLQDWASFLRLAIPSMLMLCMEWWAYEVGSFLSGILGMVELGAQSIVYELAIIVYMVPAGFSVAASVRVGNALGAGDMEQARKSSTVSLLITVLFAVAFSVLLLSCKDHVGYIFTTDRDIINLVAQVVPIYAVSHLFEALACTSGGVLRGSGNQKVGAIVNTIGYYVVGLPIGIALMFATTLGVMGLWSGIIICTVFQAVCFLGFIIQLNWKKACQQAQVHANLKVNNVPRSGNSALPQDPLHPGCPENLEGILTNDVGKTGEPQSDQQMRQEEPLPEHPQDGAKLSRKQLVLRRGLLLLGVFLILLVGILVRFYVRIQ
# measurement_protocol: Uptake ratio in MATE1-overexpressing HEK293 cells vs empty vector (2.5 μM, 1 min, HPLC-MS/MS)
# Type: cell-based
# class 1 = MATE1 ratio in this study below 20 (exclusive); class 0 = MATE1 ratio in this study at/above 20

Identify whether the molecule C1CCN2C[C@H]3C[C@H](CN4CCCC[C@@H]34)[C@H]2C1 [Sparteine (-), Sparteine] records MATE1 ratio in this study below 20. class 1

I wonder whether O=C(O[C@H]1C[C@H]2CC[C@@H](C1)[N+]21CCCC1)C(O)(c1ccccc1)c1ccccc1 [Trospium] has MATE1 ratio in this study below 20. Can you tell? class 0

Determine if CC(Cc1ccc(O)cc1)NCC(O)c1cc(O)cc(O)c1 (stereo not drawn) [Fenoterol] shows MATE1 ratio in this study strictly lower than 20. class 1

For this molecule, is MATE1 ratio in this study lower than 20? C[n+]1ccc(-c2ccccc2)cc1 [1-Methyl-4-phenylpyridinium] class 0

Could you please tell me whether MATE1 ratio in this study recorded for CC[N+](CC)(CC)CC [Tetraethyl ammonium (TEA), Tetraethyl ammonium] is less than 20? class 0

Please determine if CCCC[N+]1(C)[C@@H]2C[C@@H](OC(=O)[C@H](CO)c3ccccc3)C[C@H]1[C@@H]1O[C@@H]12 (stereo partly drawn) [Butylscopolamine] is below 20 in terms of MATE1 ratio in this study. class 0
